Hey, just so you know, these numbers are from ChEMBL document CHEMBL4342474.

- Test Protocol: Selectivity index, ratio of TC50 for human HepG2 cells to EC50 for antiplasmodial activity against Plasmodium falciparum D6
- Format: toxicity
Property Label: selectivity ratio
Form rule: numeric answer, no unit written next to it.

In: Which value of selectivity ratio has been reported for "Cc1ccc2[nH]c3c4ccc(-c5cnc(N6CCCN(C)CC6)nc5)cc4ncc3c2c1" in the records?
Out: 127

In: Quick one: selectivity ratio of "CN1CCN(c2ncc(-c3ccc4c(Nc5ccc(OCc6cccc(F)c6)c(Cl)c5)ccnc4c3)cn2)CC1" ?
Out: 167

In: Requested field: selectivity ratio. Item: "CN1CCN(c2ncc(-c3ccc4/c(=N/c5cnccn5)ccn(C)c4c3)cn2)CC1"
Out: 133

###

- Tested on: Trypanosoma cruzi
- Test Protocol: Antitrypanosomal activity against Trypanosoma cruzi CaI-72 trypomastigotes infected in mouse C2C12 cells measured after 72 hrs by DAPI staining based assay
- Type: functional, organism-based
- Condition Context: CaI-72, C2C12, 72 h
Property Label: EC50

In: For the compound shown here, "Cc1ccc2[nH]c3c4ccc(-c5cnc(N6CCCN(C)CC6)nc5)cc4ncc3c2c1" , give the reported EC50.
Out: 210 nM

In: Return reported EC50; argument: "CN1CCCN(c2ncc(-c3ccc4/c(=N/c5cnccn5)ccn(C)c4c3)cn2)CC1"
Out: 10000 nM

In: Given "CN1CCN(c2ncc(-c3ccc4c(NCCN5CCCC5)ccnc4c3)cn2)CC1" , state its recorded EC50.
Out: 2100 nM

In: Find the recorded EC50 belonging to "O=S(=O)(c1ccc(-c2ccc3nccc(N[C@@H]4CCCC[C@H]4O)c3c2)cc1)N1CCOCC1" and report it.
Out: 330 nM

In: Query (compound): "CN1C[C@H]2C[C@@H]1CN2c1ncc(-c2ccc3c(Nc4cnccn4)ccnc3c2)cn1" ; field requested: EC50
Out: 6100 nM

In: Any idea what its EC50 is? The compound is "CN1CC2(CCN(c3ncc(-c4ccc5c(Nc6cnccn6)ccnc5c4)cn3)C2)C1"
Out: 220 nM

In: // query EC50 value for entry "CCn1cc/c(=N\c2cnccn2)c2ccc(-c3cnc(N4CCCN(C)CC4)nc3)cc21"
Out: 3000 nM

In: Record request: EC50 value, item "CN1CCCN(c2ncc(-c3ccc4c(Nc5cccnc5)ccnc4c3)cn2)CC1"
Out: > 10000 nM

In: Given "O=S(=O)(c1ccc(-c2ccc3nccc(NCCN4CCCC4)c3c2)cc1)N1CCOCC1" , state its recorded EC50.
Out: 1900 nM

###

- Test Protocol: Selectivity index, ratio of TC50 for human HepG2 cells to EC50 for antiplasmodial activity against Plasmodium falciparum D6
- Type: toxicity
Decide using selectivity ratio: a value greater than or equal to 500 is YES, a smaller one is NO.

In: Does the compound "Cc1cncc(Nc2ccnc3cc(-c4cnc(N5CCCN(C)CC5)nc4)ccc23)n1" have recorded selectivity ratio that is 500 or more?
Out: YES

In: Tell me whether selectivity ratio is at least 500 here: "CN1CCCN(c2ccc(-c3ccc4c(Nc5cnccn5)ccnc4c3)cc2)CC1"
Out: YES

In: Does the reported selectivity ratio for "CN1CCCN(S(=O)(=O)c2ccc(-c3ccc4c(Nc5ccc(OC(F)(F)F)cc5)ccnc4c3)cc2)CC1" fall at or above the 500 mark?
Out: NO

In: Textbook exercise: given the entry "CN1CCCN(c2ncc(-c3ccc4c(Nc5cccnc5)ccnc4c3)cn2)CC1" , state whether its selectivity ratio is greater than or equal to 500.
Out: YES

In: Exam item: decide whether the reported selectivity ratio for "CN1CCCN(S(=O)(=O)c2ccc(-c3ccc4c(Nc5ccc(Cl)cn5)ccnc4c3)cc2)CC1" is at least 500.
Out: NO

In: Say whether "COc1ccc(Nc2ccnc3cc(-c4cnc(N5CCCN(C)CC5)nc4)ccc23)cc1Cl" shows selectivity ratio of 500 or more.
Out: YES

###

- Test Protocol: Protein binding in human plasma
- Type: ADME, cell-free
- Condition Context: read-out: PPB (converted)
Consider the following molecules; for each one, report its fraction unbound.
Could you respond with only the numeric value?

In: Name the recorded fraction unbound for "O=S(=O)(c1ccc(-c2ccc3nccc(N[C@@H]4CCCC[C@H]4O)c3c2)cc1)N1CCOCC1" .
Out: 0.28

In: // query fraction unbound value for entry "CS(=O)(=O)N1CCN(c2ncc(-c3ccc4c(Nc5cnccn5)ccnc4c3)cn2)CC1"
Out: 0.05

###

- Test Protocol: Intrinsic clearance in human liver microsomes assessed as per mg protein
- Format: ADME, Microsome
- Condition Context: liver microsomes, read-out: CLH
Exercise: for every item that follows, state its recorded microsomal CLint.
Numbers only; they are read as µL/min/mg.

In: Query: microsomal CLint; subject: "CS(=O)(=O)N1CCN(c2ncc(-c3ccc4c(Nc5cnccn5)ccnc4c3)cn2)CC1"
Out: 44

In: Which microsomal CLint is listed for "O=S(=O)(c1ccc(-c2ccc3nccc(N[C@@H]4CCCC[C@H]4O)c3c2)cc1)N1CCOCC1" ?
Out: 43

###

- Test Protocol: Selectivity index, ratio of TC50 for mouse B10R cells to EC50 for antileishmanial activity against Leishmania donovani infected in mouse B10R cells
- Assay type: toxicity, cell-based
Property Label: selectivity ratio
Number, no unit, nothing else.

In: Name the recorded selectivity ratio for "CN1CCN(c2ncc(-c3ccc4c(Nc5ccc(OCc6cccc(F)c6)c(Cl)c5)ccnc4c3)cn2)CC1" .
Out: 1740

In: What value of measured selectivity ratio is listed for "CN1CCCN(c2ncc(-c3ccc4c(Nc5ccc(OC(F)(F)F)cc5)ccnc4c3)cn2)CC1" ?
Out: 7.8

In: Consider the molecule "Cc1ccc2[nH]c3c4ccc(-c5cnc(N6CCCN(C)CC6)nc5)cc4ncc3c2c1" and give its measured selectivity ratio.
Out: 3.6

###

- Test Protocol: Selectivity index, ratio of TC50 for mouse C2C12 cells to EC50 for antitrypanosomal activity against Trypanosoma cruzi CaI-72 trypomastigotes infected in mouse C2C12 cells
- Format: toxicity, cell-based
Property Label: selectivity ratio
Lab note: record the figure alone, no unit after it.

In: GET /values?readout=selectivity ratio&item= "CN1CCCN(c2ccc(-c3ccc4c(Nc5cnccn5)ccnc4c3)cc2)CC1"
Out: 1

In: Requested read-out: selectivity ratio. Entry: "CN1CCN(c2ncc(-c3ccc4c(Nc5ccc(OCc6cccc(F)c6)c(Cl)c5)ccnc4c3)cn2)CC1"
Out: 290

In: Which selectivity ratio value belongs to "CCn1cc/c(=N\c2cnccn2)c2ccc(-c3cnc(N4CCCN(C)CC4)nc3)cc21" ?
Out: 1

In: Entry "CN1CCCN(c2ncc(-c3ccc4c(c3)ncc3c5ccccc5[nH]c43)cn2)CC1" : reported selectivity ratio = ?
Out: 6.7

###

Hi there, I'd appreciate the recorded pEC50 for every entry that follows.
- Tested on: Trypanosoma cruzi
- Test Protocol: Antitrypanosomal activity against Trypanosoma cruzi Tulahuen trypomastigotes infected in mouse NIH/3T3 cells measured after 96 hrs by beta-galactosidase reporter gene assay
- Type: functional, organism-based
- Condition Context: NIH3T3, 96 h
Scale: negative log10 of molar concentration, which is what pEC50 denotes.

In: // pEC50 lookup, key: "Cc1c(-c2cnc(N3CCN(C)CC3)nc2)ccc2c(Nc3cnccn3)ccnc12"
Out: 4.60

In: Recorded pEC50 for "Cc1cc2c(Nc3cnccn3)ccnc2cc1-c1cnc(N2CCN(C)CC2)nc1" , please?
Out: 4.66

In: Which pEC50 reading was recorded for the molecule "CN1CCN(c2ncc(-c3ccc4c(Nc5cnccn5)ccnc4c3)cn2)CC1" ?
Out: 5.22

In: Look up pEC50: "CS(=O)(=O)N1CCN(c2ncc(-c3ccc4c(Nc5cnccn5)ccnc4c3)cn2)CC1"
Out: 4.35

In: Please give the measured pEC50 for this molecule: "CN1CCN(c2ccc(-c3ccc4c(Nc5cnccn5)ccnc4c3)cc2)CC1"
Out: 5.21

In: Find the recorded pEC50 belonging to "CN1CCN(c2ncc(Nc3ccc4c(Nc5cnccn5)ccnc4c3)cn2)CC1" and report it.
Out: 4.33

###

- System: Plasmodium falciparum
- Test Protocol: Antiplasmodial activity against Plasmodium falciparum TM91C235 after 72 hrs by SYBR Green fluorescence assay
- Format: functional, organism-based
- Condition Context: TM91C235, 72 h
Property Label: EC50 (nM)
Return type: number; implicit unit nM.

In: Could you tell me which EC50 is on file for "CN1CCN(c2ncc(-c3ccc4c(Nc5cnccn5)ccnc4c3)cn2)CC1" ?
Out: 37

###

Provide the reported solubility of each item.
- Test Protocol: Aqueous solubility of compound at pH 7.4
- Format: physicochemical
- Condition Context: aqueous solution, read-out: solubility
Dear colleague, please return just the value in µM, with no unit written.

In: Item under review: "CS(=O)(=O)N1CCN(c2ncc(-c3ccc4c(Nc5cnccn5)ccnc4c3)cn2)CC1" . Reported solubility?
Out: 0.06

In: GET /values?readout=solubility&item= "CN1CCCN(c2ccc(-c3ccc4c(Nc5cnccn5)ccnc4c3)cc2)CC1"
Out: 4.1

In: # solubility lookup, item "O=S(=O)(c1ccc(-c2ccc3nccc(N[C@@H]4CCCC[C@H]4O)c3c2)cc1)N1CCOCC1"
Out: 137
